Origin of the recorded values: BigSolDB 2.1

conditions: in ethanol, 288.15 K
Property label: solubility (mole fraction)
Give the value as a plain number.

Query: Complete the entry with solubility (mole fraction) for O=C(Cn1cnnn1)N[C@@H]1C(=O)N2C(C(=O)O)=C(CSc3nncs3)CS[C@H]12
Response: 6.49e-05

----------
conditions: in isopropanol, 298.15 K
Property label: solubility (mole fraction)
I only need the number, thanks.

Query: Tell me solubility (mole fraction) reported for O=C(Cn1cnnn1)N[C@@H]1C(=O)N2C(C(=O)O)=C(CSc3nncs3)CS[C@H]12
Response: 0.000104

----------
details: in ethyl acetate, 283.15 K
Property label: solubility (mole fraction)
Reply: number alone, nothing else.

Query: Let me know recorded solubility (mole fraction) for O=C(Cn1cnnn1)N[C@@H]1C(=O)N2C(C(=O)O)=C(CSc3nncs3)CS[C@H]12 , thanks.
Response: 0.000217

----------
conditions: in ethyl acetate, 278.15 K
Property label: solubility (mole fraction)

Query: Give the measured solubility (mole fraction) for O=C(Cn1cnnn1)N[C@@H]1C(=O)N2C(C(=O)O)=C(CSc3nncs3)CS[C@H]12
Response: 0.000188

----------
settings: in acetonitrile, 308.15 K
Property label: solubility (mole fraction)
# respond with the number and nothing more

Query: Identify measured solubility (mole fraction) corresponding to O=C(Cn1cnnn1)N[C@@H]1C(=O)N2C(C(=O)O)=C(CSc3nncs3)CS[C@H]12
Response: 0.000253

----------
conditions: in ethanol, 293.15 K
Property label: solubility (mole fraction)

Query: Please look at this compound and report its solubility (mole fraction): O=C(Cn1cnnn1)N[C@@H]1C(=O)N2C(C(=O)O)=C(CSc3nncs3)CS[C@H]12
Response: 7.26e-05

----------
settings: in ethyl acetate, 298.15 K
Property label: solubility (mole fraction)
Format: numeric value only, no unit, no commentary.

Query: Specify solubility (mole fraction) for O=C(Cn1cnnn1)N[C@@H]1C(=O)N2C(C(=O)O)=C(CSc3nncs3)CS[C@H]12 and stop.
Response: 0.000342

----------
settings: in water, 308.15 K
Property label: solubility (mole fraction)
Could you respond with only the numeric value?

Query: Look up and report measured solubility (mole fraction) for this entry: O=C(Cn1cnnn1)N[C@@H]1C(=O)N2C(C(=O)O)=C(CSc3nncs3)CS[C@H]12
Response: 4.27e-05

----------
details: in isopropanol, 278.15 K
Property label: solubility (mole fraction)
Lab note: jot the number down without any unit.

Query: Retrieve solubility (mole fraction) measured for O=C(Cn1cnnn1)N[C@@H]1C(=O)N2C(C(=O)O)=C(CSc3nncs3)CS[C@H]12 and print it.
Response: 6.43e-05

----------
settings: in acetonitrile, 293.15 K
Property label: solubility (mole fraction)
// return just the number, without any unit appended

Query: Complete the entry with solubility (mole fraction) for O=C(Cn1cnnn1)N[C@@H]1C(=O)N2C(C(=O)O)=C(CSc3nncs3)CS[C@H]12
Response: 0.000164

----------
conditions: in ethanol, 298.15 K
Property label: solubility (mole fraction)
Give the figure by itself; no unit, no explanation.

Query: Please give measured solubility (mole fraction) of the following entry: O=C(Cn1cnnn1)N[C@@H]1C(=O)N2C(C(=O)O)=C(CSc3nncs3)CS[C@H]12
Response: 9.45e-05

----------
settings: in isopropanol, 303.15 K
Property label: solubility (mole fraction)

Query: Give me measured solubility (mole fraction), please, for this compound: O=C(Cn1cnnn1)N[C@@H]1C(=O)N2C(C(=O)O)=C(CSc3nncs3)CS[C@H]12
Response: 0.000114
